- System: PA-TU-8902 cells
- method.summary: Non-anchorage-dependent cell growth inhibition (spheroid 3D culture), PA-TU-8902
- Format: cell-based, human
- condition.context: Homo sapiens, PaTu 8902, 144 h; KRAS G12V mutant-positive, 3D spheroid, six days, CellTiter-Glo 2.0; read-out: PA-TU-8902 IC50
Criterion: IC50 strictly under 60 nM. Met: T. Not met: F.

molecule	group.label
Cc1ncsc1-c1ccc([C@H](CO)NC(=O)[C@@H]2C[C@@H](O)CN2C(=O)[C@H](C(C)C)n2cc(-c3ccc(COc4c(-c5c(C)c(F)cc6[nH]ncc56)c(C5CC5)cc5c(N6CC(C#N)C6)nc(OC[C@@H]6CCN(C)C6)nc45)cc3)nn2)cc1	F
Cc1ncsc1-c1ccc([C@H](CCO)NC(=O)[C@@H]2C[C@@H](O)CN2C(=O)[C@H](C(C)C)n2cc(-c3ccc(COc4c(-c5c(C)c(F)cc6[nH]ncc56)c(C5CC5)cc5c(NC6CN(C(=O)NCCN(C)C)C6)nc(OC6CCOCC6)nc45)cc3)nn2)cc1	T
CO[C@@H](C)COc1nc(N(C)[C@H]2CCN(C(=O)NCCN(C)C)C2)c2cc(C3CC3)c(-c3c(C)c(F)cc4[nH]ncc34)c(OCc3ccc(-c4cn([C@H](C(=O)N5C[C@H](O)C[C@H]5C(=O)N[C@@H](CO)c5ccc(-c6scnc6C)cc5)C(C)C)nn4)cc3)c2n1 (atropisomer, axis not shown)	T
CO[C@@H](C)COc1cc(OC2CN(C(=O)N3CC(CN(C)C)C3)C2)c2cc(C3CC3)c(-c3c(C)c(F)cc4[nH]ncc34)c(OCc3ccc(-c4cn([C@H](C(=O)N5C[C@H](O)C[C@H]5C(=O)N[C@@H](CO)c5ccc(-n6cncn6)cc5)C(C)C)nn4)cc3)c2n1 (atropisomer, axis not shown; (M))	T
Cc1c(F)cc2[nH]ncc2c1-c1c(C2CC2)cc2c(NC3CN(C(=O)NCCN(C)C)C3)nc(OC[C@@H]3CCCO3)nc2c1OCc1ccc(-c2cn([C@H](C(=O)N3C[C@H](O)C[C@H]3C(=O)N[C@@H](CO)c3ccc(-n4cncn4)cc3)C(C)C)nn2)cc1 (atropisomer, axis not shown)	F
CO[C@@H](C)COc1cc(OC2CN(C(=O)O[C@H]3C[C@@H](N(C)C)C3)C2)c2cc(C3CC3)c(-c3c(C)c(F)cc4[nH]ncc34)c(OCc3ccc(-c4cn([C@H](C(=O)N5C[C@H](O)C[C@H]5C(=O)N[C@@H](CO)c5ccc(-n6cncn6)cc5)C(C)C)nn4)cc3)c2n1 (atropisomer, axis not shown; (M))	T
CO[C@@H](C)COc1nc(NC2CN(C(=O)O[C@H]3C[C@@H](N(C)C)C3)C2)c2cc(C3CC3)c(-c3c(C)c(F)cc4[nH]ncc34)c(OCc3ccc(-c4cn([C@H](C(=O)N5C[C@H](O)C[C@H]5C(=O)N[C@@H](CO)c5ccc(-c6scnc6C)nc5)C(C)C)nn4)cc3)c2n1 (atropisomer, axis not shown)	F
CO[C@@H](C)COc1nc(NC2CN(C(=S)N3CC(CN(C)C)C3)C2)c2cc(C3CC3)c(-c3c(C)c(F)cc4[nH]ncc34)c(OCc3ccc(-c4cn([C@H](C(=O)N5C[C@H](O)C[C@H]5C(=O)N[C@@H](CO)c5ccc(-n6cncn6)cc5)C(C)C)nn4)cc3)c2n1 (atropisomer, axis not shown)	T
COC(C)(C)COc1cc(OC2CN(C(=O)N3CC(CN(C)C)C3)C2)c2cc(C3CC3)c(-c3c(C)c(F)cc4[nH]ncc34)c(OCc3ccc(-c4cn([C@H](C(=O)N5C[C@H](O)C[C@H]5C(=O)N[C@@H](CO)c5ccc(-n6cncn6)cc5)C(C)C)nn4)cc3)c2n1 (atropisomer, axis not shown)	T
CO[C@@H](C)COc1cc(OC2CN(C(=O)N3CC(CN(C)C)C3)C2)c2cc(C3CC3)c(-c3c(C)c(F)cc4[nH]ncc34)c(OCc3ccc(-c4cn([C@H](C(=O)N5C[C@H](O)C[C@H]5C(=O)N[C@@H](CO)c5ccc(-c6scnc6C)cc5)C(C)C)nn4)cc3)c2n1 (atropisomer, axis not shown; (M))	T
COC(C)(C)COc1cc(OC2CN(C(=O)N[C@H]3C[C@@H](N(C)C)C3)C2)c2cc(C3CC3)c(-c3c(C)c(F)cc4[nH]ncc34)c(OCc3ccc(-c4cn([C@H](C(=O)N5C[C@H](O)C[C@H]5C(=O)N[C@@H](CO)c5ccc(-n6cncn6)cc5)C(C)C)nn4)cc3)c2n1 (atropisomer, axis not shown)	F
CO[C@@H](C)COc1nc(NC2CN(C(=O)OCCN(C)C)C2)c2cc(C3CC3)c(-c3c(C)c(F)cc4[nH]ncc34)c(OCc3ccc(-c4cn([C@H](C(=O)N5C[C@H](O)C[C@H]5C(=O)N[C@@H](CO)c5ccc(-c6scnc6C)cc5)C(C)C)nn4)cc3)c2n1 (atropisomer, axis not shown; (M))	F
CO[C@@H](C)COc1cc(OC2CN(C(=O)N3CC(CN(C)C)C3)C2)c2cc(C3CC3)c(-c3c(C)c(F)cc4[nH]ncc34)c(OCc3ccc(-c4cn([C@H](C(=O)N5C[C@H](O)C[C@H]5C(=O)N[C@@H](CO)c5ccc(-c6ocnc6C)cc5)C(C)C)nn4)cc3)c2n1 (atropisomer, axis not shown; (M))	T

###

- tested.target: RAS G12V (Homo sapiens, UniProt P01116, G12V)
- Construct: host or cells: PA-TU-8902 human pancreatic cancer cells
- Sequence (P01116 1-188 isoform P01116-2 G12V): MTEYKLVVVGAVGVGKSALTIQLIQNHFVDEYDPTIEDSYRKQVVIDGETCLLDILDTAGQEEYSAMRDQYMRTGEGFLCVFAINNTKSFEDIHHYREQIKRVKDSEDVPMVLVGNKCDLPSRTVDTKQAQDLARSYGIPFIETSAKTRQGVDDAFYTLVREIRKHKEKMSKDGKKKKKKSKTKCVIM
- method.summary: RAS G12V degradation activity, Cell ELISA, PA-TU-8902
- Type: cell-based
- condition.context: PA-TU-8902 cells, 24 hours, 100% = Example compound 17 at 1 μM; read-out: DC50 (RAS G12V 50% degradation value)
measurement.name: DC50 (µM)

compound	tested.target	unit.abbrev	recorded.value
CO[C@@H](C)COc1cc(OC2CN(C(=O)N3CC(CN(C)C)C3)C2)c2cc(C3CC3)c(-c3c(C)c(F)cc4[nH]ncc34)c(OCc3ccc(-c4cn([C@H](C(=O)N5C[C@H](O)C[C@H]5C(=O)N[C@@H](CO)c5ccc(-n6cncn6)cc5)C(C)C)nn4)cc3)c2n1 (atropisomer, axis not shown; (M))	RAS G12V (Homo sapiens, UniProt P01116, G12V)	µM	0.026
CO[C@@H](C)COc1cc(OC2CN(C(=O)O[C@H]3C[C@@H](N(C)C)C3)C2)c2cc(C3CC3)c(-c3c(C)c(F)cc4[nH]ncc34)c(OCc3ccc(-c4cn([C@H](C(=O)N5C[C@H](O)C[C@H]5C(=O)N[C@@H](CO)c5ccc(-n6cncn6)cc5)C(C)C)nn4)cc3)c2n1 (atropisomer, axis not shown; (M))	RAS G12V (Homo sapiens, UniProt P01116, G12V)	µM	0.011
CO[C@@H](C)COc1cc(OC2CN(C(=O)CCCN(C)C)C2)c2cc(C3CC3)c(-c3c(C)c(F)cc4[nH]ncc34)c(OCc3ccc(-c4cn([C@H](C(=O)N5C[C@H](O)C[C@H]5C(=O)N[C@@H](CO)c5ccc(-n6cncn6)cc5)C(C)C)nn4)cc3)c2n1 (atropisomer, axis not shown; (M))	RAS G12V (Homo sapiens, UniProt P01116, G12V)	µM	0.03
CO[C@@H](C)COc1cc(OC2CN(C(=O)N3CC(CN(C)C)C3)C2)c2cc(C3CC3)c(-c3c(C)c(F)cc4[nH]ncc34)c(OCc3ccc(-c4cn([C@H](C(=O)N5C[C@H](O)C[C@H]5C(=O)N[C@@H](CO)c5ccc(-c6scnc6C)cc5)C(C)C)nn4)cc3)c2n1 (atropisomer, axis not shown; (M))	RAS G12V (Homo sapiens, UniProt P01116, G12V)	µM	0.01
Cc1ncsc1-c1ccc([C@H](CO)NC(=O)[C@@H]2C[C@@H](O)CN2C(=O)[C@H](C(C)C)n2cc(-c3ccc(COc4c(-c5c(C)c(F)cc6[nH]ncc56)c(C5CC5)cc5c(N6CC[C@H]6C(N)=O)nc(OC6CCOCC6)nc45)cc3)nn2)cc1	RAS G12V (Homo sapiens, UniProt P01116, G12V)	µM	0.023
CO[C@@H](C)COc1cc(OC2CN(C(=O)N3CC(CN(C)C)C3)C2)c2cc(C3CC3)c(-c3c(C)c(F)cc4[nH]ncc34)c(OCc3ccc(-c4cn([C@H](C(=O)N5C[C@H](O)C[C@H]5C(=O)N[C@@H](CO)c5ccc(-c6ocnc6C)cc5)C(C)C)nn4)cc3)c2n1 (atropisomer, axis not shown; (M))	RAS G12V (Homo sapiens, UniProt P01116, G12V)	µM	0.022
CO[C@@H](C)COc1nc(N(C)[C@H]2CCN(C(=O)NCCN(C)C)C2)c2cc(C3CC3)c(-c3c(C)c(F)cc4[nH]ncc34)c(OCc3ccc(-c4cn([C@H](C(=O)N5C[C@H](O)C[C@H]5C(=O)N[C@@H](CO)c5ccc(-c6scnc6C)cc5)C(C)C)nn4)cc3)c2n1 (atropisomer, axis not shown)	RAS G12V (Homo sapiens, UniProt P01116, G12V)	µM	0.026
